# Test system: THP-1 cells
# test_protocol: Immune cell viability in monoculture and co-cultures with HT-29 by flow cytometry
# Format: cell-based, human
# condition_summary: co-culture 2:1 HT-29/THP-1, 20 μM, 24 h
endpoint_label: THP-1 living cells compared to control (%), 2:1 HT-29/THP-1, 24 h
All answers are understood in %, so give the number only.

Input line: // returns reported THP-1 living cells compared to control (%), 2:1 HT-29/THP-1, 24 h for input "COc1ccc(COc2cccc(NC(=O)Nc3ccc(F)cc3)c2)cc1"
Output line: 90

Input line: // returns reported THP-1 living cells compared to control (%), 2:1 HT-29/THP-1, 24 h for input "COc1ccc(COc2cccc(NC(=O)Nc3ccc(Br)cc3)c2)cc1"
Output line: 82

Input line: // returns reported THP-1 living cells compared to control (%), 2:1 HT-29/THP-1, 24 h for input Cc1c(COc2ccc(CN3CCCCC3C(=O)O)cc2Br)cccc1-c1ccccc1 (centres unmarked) [BMS-8, reference compound]
Output line: 101

Input line: // returns reported THP-1 living cells compared to control (%), 2:1 HT-29/THP-1, 24 h for input "COc1ccc(COc2cccc(NC(=O)Oc3ccccc3)c2)cc1"
Output line: 81

Input line: // returns reported THP-1 living cells compared to control (%), 2:1 HT-29/THP-1, 24 h for input "COc1ccc(COc2cccc(NC(=O)Nc3ccc(OC)cc3)c2)cc1"
Output line: 66

Entry source: paper PMC10218498
